- Tested on: Caco-2
- protocol_summary: cell viability relative to DMSO; higher = less toxic
- cond: 72 h; 1000 nM
value_type: cell viability (%)

INSERT INTO assay_data (compound, value_type, uom, recorded_measurement) VALUES
  ('Oc1c(I)cc(I)c2cccnc12 [iodoquinol]', 'cell viability', '%', 96.3),
  ('N#Cc1ccc(Cn2cncc2CN2CCN(c3cccc(Cl)c3)C(=O)C2)cc1', 'cell viability', '%', 97.2),
  ('CO/N=C(\C(=O)N[C@@H]1C(=O)N2C(C(=O)O)=CCS[C@H]12)c1csc(N)n1 [ceftizoxim]', 'cell viability', '%', 103),
  ('CC(C)CCC[C@@H](C)[C@H]1CC[C@H]2[C@@H]3CC=C4C[C@@H](O)CC[C@]4(C)[C@H]3CC[C@]12C [cholesterol]', 'cell viability', '%', 90.4),
  ('CC[n+]1c(-c2ccccc2)c2cc(N)ccc2c2ccc(N)cc21 [homidium]', 'cell viability', '%', 55.4),
  ('FCc1ccc(OCCOc2ccc(Cl)cc2Cl)c(Cl)n1', 'cell viability', '%', 90.5),
  ('CCN(CC)CCOc1ccc(/C(=C(\Cl)c2ccccc2)c2ccccc2)cc1 [clomifene]', 'cell viability', '%', 96.4),
  ('CCOCCOc1ccccc1C(N)=O [etosalamide]', 'cell viability', '%', 97.9),
  ('CC[C@H](/C=C/[C@@H](C)[C@H]1CC[C@H]2[C@@H]3CC=C4C[C@@H](O)CC[C@]4(C)[C@H]3CC[C@]12C)C(C)C [Stigmasterol (Stigmasterin)]', 'cell viability', '%', 93.5),
  ('CCOC(=O)c1ncc2[nH]c3ccc(OCc4ccccc4)cc3c2c1COC', 'cell viability', '%', 79.1),
  ('C[C@]12CC[C@@H]3c4ccc(OS(=O)(=O)O)cc4CC[C@H]3[C@@H]1CCC2=O [estropipate]', 'cell viability', '%', 109),
  ('CCCCNc1ncc(-c2ccc(CN3CCOCC3)cn2)c(N[C@H]2CC[C@H](O)CC2)n1 [UNC2250]', 'cell viability', '%', 108),
  ('O=C([O-])CN1CCN(CC(=O)[O-])CCN([C@H](CO)[C@H](O)CO)CCN(CC(=O)[O-])CC1.[Gd+3] (racemic) [gadobutrol]', 'cell viability', '%', 98.8);

----------
- Test system: HepG2
- protocol_summary: cell viability relative to DMSO; higher = less toxic
- cond: 72 h; 10000 nM
value_type: cell viability (%)

INSERT INTO results (molecule, value_type, uom, recorded_measurement) VALUES
  ('C[S+](C)CC[C@H](N)C(=O)O [cabagin]', 'cell viability', '%', 98.5),
  ('Cc1ccc(-c2csc3ncnc(SCCC(=O)O)c23)cc1 [TTP-22]', 'cell viability', '%', 108),
  ('Oc1cc2c(c(Cl)c1O)CCNCC2c1ccccc1 (configuration not stated)', 'cell viability', '%', 86.8),
  ('CCCN(CCC)C(=O)C(CCC(=O)OCCCN1CCN(CCOC(=O)Cc2c(C)n(C(=O)c3ccc(Cl)cc3)c3ccc(OC)cc23)CC1)NC(=O)c1ccccc1 (configuration not stated) [proglumetacin]', 'cell viability', '%', 93.9),
  ('CN1CCN(CCc2ccc(Cl)c(Cl)c2)CC1 [BD-1063]', 'cell viability', '%', 87.7),
  ('CC[C@H](C)[C@H](N)C1=N[C@H](C(=O)N[C@@H](CC(C)C)C(=O)N[C@H](CCC(=O)O)C(=O)N[C@H](C(=O)N[C@H]2CCCCNC(=O)[C@H](CC(N)=O)NC(=O)[C@@H](CC(=O)O)NC(=O)[C@H](Cc3cnc[nH]3)NC(=O)[C@@H](Cc3ccccc3)NC(=O)[C@H]([C@@H](C)CC)NC(=O)[C@@H](CCCN)NC2=O)[C@@H](C)CC)CS1 [bacitracin]', 'cell viability', '%', 104),
  ('CCOC(=O)CCNc1cc(N2CCc3ccccc3CC2)nc(-c2ccccn2)n1 [GSK-J4]', 'cell viability', '%', 33.5);

----------
- Test system: Vero E6
- protocol_summary: cell viability relative to DMSO; higher = less toxic
- cond: 72 h; 1 nM
Parameter: cell viability. Scope: all listed entries.
value_type: cell viability (%)

INSERT INTO measurements (compound, subject_of_test, value_type, recorded_measurement) VALUES
  ('CC(C)(C)c1cc(NC(=O)Nc2ccc(-c3cn4c(n3)sc3cc(OCCN5CCOCC5)ccc34)cc2)no1', 'Vero E6', 'cell viability', 99.1),
  ('OCCCNc1cc(-c2ccnc(Nc3cccc(Cl)c3)n2)ccn1', 'Vero E6', 'cell viability', 94.5),
  ('Nc1nc(=O)c2c([nH]1)NCC(CNc1ccc(C(=O)N[C@@H](CCC(=O)O)C(=O)O)cc1)N2C=O (some centres not stated)', 'Vero E6', 'cell viability', 101),
  ('COC(=O)C1=CO[C@@H](O)[C@@H]2C(CO)=CC[C@H]12', 'Vero E6', 'cell viability', 90.1),
  ('CC(C)[C@@H]1C(=O)N(S(C)(=O)=O)[C@@H]2CCN(C(=O)/C=C/CN3CCCCC3)[C@H]21', 'Vero E6', 'cell viability', 97.2),
  ('O=c1[nH]cnc2c1cnn2[C@@H]1O[C@H](CO)[C@@H](O)[C@H]1O [allopurinol-riboside]', 'Vero E6', 'cell viability', 102),
  ('CCCCCOc1ccc(-c2ccc(-c3ccc(C(=O)N[C@H]4C[C@@H](O)[C@@H](O)NC(=O)[C@@H]5[C@@H](O)[C@@H](C)CN5C(=O)[C@H]([C@@H](C)O)NC(=O)[C@H]([C@H](O)[C@@H](O)c5ccc(O)cc5)NC(=O)[C@@H]5C[C@@H](O)CN5C(=O)[C@H]([C@@H](C)O)NC4=O)cc3)cc2)cc1', 'Vero E6', 'cell viability', 94.8),
  ('C[N@+]1(CC2CC2)CC[C@]23c4c5ccc(O)c4O[C@H]2C(=O)CC[C@@]3(O)[C@H]1C5 [methylnaltrexone]', 'Vero E6', 'cell viability', 97.3),
  ('O=C1c2cccnc2OC[C@@H]2CCCN12', 'Vero E6', 'cell viability', 93.8),
  ('NC(=O)CNCCC(c1ccccc1)c1ccccc1 [N20C]', 'Vero E6', 'cell viability', 96.9),
  ('CCCN1CCC[C@@H]2Cc3n[nH]cc3C[C@H]21 [quinpirol-(-)]', 'Vero E6', 'cell viability', 96.8),
  ('CC(C)(O)C(Cl)(Cl)Cl', 'Vero E6', 'cell viability', 102),
  ('Cc1cn([C@@H]2C[C@@H](O)[C@H](CO)O2)c(=O)[nH]c1=O', 'Vero E6', 'cell viability', 98.8),
  ('CC[C@H](/C=C/[C@@H](C)[C@H]1CC[C@H]2[C@@H]3CC=C4C[C@@H](O)CC[C@]4(C)[C@H]3CC[C@]12C)C(C)C [Stigmasterol (Stigmasterin)]', 'Vero E6', 'cell viability', 99),
  ('CCCCCCCCCCCCCCCC(=O)O[C@@H]1[C@@H](O)[C@@H](O)[C@@H]([C@H](NC(=O)[C@@H]2C[C@@H](CCC)CN2C)[C@H](C)Cl)O[C@@H]1SC [clindamycin-palmitate]', 'Vero E6', 'cell viability', 95.5),
  ('CN1CCN(c2cc(-c3ccccc3)nc(N)n2)CC1', 'Vero E6', 'cell viability', 98.9),
  ('CCN(CC)CCOC(=O)C(c1ccccc1)c1ccccc1', 'Vero E6', 'cell viability', 111);

----------
Reported drug sensitivity score values follow for various compounds
- Test system: Calu-3
- protocol_summary: drug sensitivity score (DSS) for viability; higher = more toxic; extreme values may be limits of the assay
- cond: 72 h
value_type: drug sensitivity score

INSERT INTO results (compound, value_type, recorded_measurement) VALUES
  ('CC(C)(N)CC12CC3CC(CC(C3)C1)C2 [somantadine]', 'drug sensitivity score', 0),
  ('c1cnc(N2CCN(Cc3ccc4c(c3)OCO4)CC2)nc1 [piribedil]', 'drug sensitivity score', 0),
  ('CN(C)CCCC(=O)Nc1ccc(C(=O)Nc2cccc(Nc3ncc(Cl)c(-c4c[nH]c5ccccc45)n3)c2)cc1 [THZ1-R]', 'drug sensitivity score', 1.3),
  ('CCCCCOC(=O)Nc1nc(=O)n([C@@H]2O[C@H](C)[C@@H](O)[C@H]2O)cc1F [capecitabine]', 'drug sensitivity score', 0),
  ('CCCCC/N=c1\ccn(Cc2ccccc2)c2ccccc12', 'drug sensitivity score', 1.4),
  ('Oc1cccc(-c2nc(N3CCOCC3)c3oc4ncccc4c3n2)c1 [PI-103]', 'drug sensitivity score', 5.1);

----------
Known cell viability of a selection of molecules
- Tested on: Vero E6
- protocol_summary: cell viability relative to DMSO; higher = less toxic
- cond: 72 h; 1 nM
value_type: cell viability (%)

INSERT INTO assay_data (molecule, subject_of_test, value_type, recorded_measurement) VALUES
  ('O=C(CBr)N1CC([N+](=O)[O-])([N+](=O)[O-])C1', 'Vero E6', 'cell viability', 106),
  ('CC[C@@](C)(Nc1ccnc(-c2c[nH]c3ncccc23)n1)C(=O)NCC(F)(F)F', 'Vero E6', 'cell viability', 100),
  ('C[N+](C)(C)CCCCCNCC12CC3CC(CC(C3)C1)C2', 'Vero E6', 'cell viability', 105),
  ('NS(=O)(=O)NCCNc1nonc1/C(=N/O)Nc1ccc(F)c(Br)c1', 'Vero E6', 'cell viability', 100),
  ('O=C(O)c1ccc(/C=C2\SC(=S)N(c3cccc(C(F)(F)F)c3)C2=O)cc1', 'Vero E6', 'cell viability', 96.3),
  ('O=C([O-])CN1CCN(CC(=O)[O-])CCN([C@H](CO)[C@H](O)CO)CCN(CC(=O)[O-])CC1.[Gd+3] (racemic)', 'Vero E6', 'cell viability', 100),
  ('O=C(CN1CCNCC1)NC1CCCCC1', 'Vero E6', 'cell viability', 103),
  ('O=C([O-])C(O)[C@H](O)[C@@H](O)[C@H](O)[C@H](O)CO.O=C([O-])C(O)[C@H](O)[C@@H](O)[C@H](O)[C@H](O)CO.[Ca+2] (stereo partly drawn) [calcium-gluceptate]', 'Vero E6', 'cell viability', 97.2),
  ('COc1ccc(-n2c(SCc3nc(-c4ccc(C)cc4)no3)nnc2-c2ccncc2)cc1', 'Vero E6', 'cell viability', 108),
  ('Cn1c(CNc2ccc(C(=N)N)cc2)nc2cc(C(=O)N(CCC(=O)O)c3ccccn3)ccc21', 'Vero E6', 'cell viability', 96.9),
  ('O=C1[C@@H]2[C@H]3CC[C@H](C3)[C@@H]2C(=O)N1C[C@@H]1CCCC[C@H]1CN1CCN(c2nsc3ccccc23)CC1', 'Vero E6', 'cell viability', 104),
  ('O=Nc1ccc(O)c2ncccc12', 'Vero E6', 'cell viability', 99.8),
  ('CCOC(=O)c1ncc2[nH]c3ccc(OCc4ccccc4)cc3c2c1COC', 'Vero E6', 'cell viability', 91.9);
